test_target: Metabotropic glutamate receptor 4 [Q124R] (Rattus norvegicus, UniProt P31423, Q124R)
Sequence (P31423 33-912 Q124R limits assumed): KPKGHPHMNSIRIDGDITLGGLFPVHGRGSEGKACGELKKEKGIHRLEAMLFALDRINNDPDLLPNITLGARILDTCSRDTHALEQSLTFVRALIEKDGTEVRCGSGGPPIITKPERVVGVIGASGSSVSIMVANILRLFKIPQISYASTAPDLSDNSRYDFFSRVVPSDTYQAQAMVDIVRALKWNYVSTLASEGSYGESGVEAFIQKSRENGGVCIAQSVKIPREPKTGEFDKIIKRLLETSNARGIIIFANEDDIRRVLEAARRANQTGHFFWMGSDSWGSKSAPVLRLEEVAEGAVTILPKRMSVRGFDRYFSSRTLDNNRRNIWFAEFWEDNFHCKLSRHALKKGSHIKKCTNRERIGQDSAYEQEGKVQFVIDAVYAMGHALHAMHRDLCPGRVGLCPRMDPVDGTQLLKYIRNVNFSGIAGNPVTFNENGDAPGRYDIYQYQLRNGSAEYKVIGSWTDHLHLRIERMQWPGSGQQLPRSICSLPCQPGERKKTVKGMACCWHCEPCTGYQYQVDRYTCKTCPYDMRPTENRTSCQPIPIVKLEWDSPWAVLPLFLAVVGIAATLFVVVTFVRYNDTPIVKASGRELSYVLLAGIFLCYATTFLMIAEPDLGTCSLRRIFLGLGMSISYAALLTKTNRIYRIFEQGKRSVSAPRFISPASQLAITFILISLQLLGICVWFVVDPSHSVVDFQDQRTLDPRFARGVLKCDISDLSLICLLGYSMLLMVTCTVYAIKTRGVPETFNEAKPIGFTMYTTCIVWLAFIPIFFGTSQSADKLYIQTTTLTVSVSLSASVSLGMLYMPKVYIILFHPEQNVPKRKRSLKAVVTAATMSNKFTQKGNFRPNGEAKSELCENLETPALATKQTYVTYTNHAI
assay_overview: PubChem AID 2185
I'd appreciate it if you could supply pEC50 values for the items below.
Numbers only, as −log10 of the molar value.

Data point: COc1cc(NC(=O)c2ccccn2)ccc1C ; pEC50 = 6.68

Take each entry in turn and give its pEC50.
1. COc1ccc(NC(=O)c2ccccn2)cc1Cl
2. O=C(Nc1ccc(-n2c(O)ccc2O)c(Cl)c1)c1ccccn1
3. COc1cc(NC(=O)c2ccccn2)ccc1F
4. O=C(Nc1ccc(-n2c(O)c3c(c2O)[C@H]2CC[C@@H]3O2)c(Cl)c1)c1ccccn1
5. COc1ccc(NC(=O)c2ccccn2)cc1OC
6. O=C(Nc1ccc(-n2c(O)c3c(c2O)CCCC3)c(Cl)c1)c1ccccn1
7. O=C(Nc1ccc(F)c(C(F)(F)F)c1)c1ccccn1
8. O=C(Nc1ccc(-n2c(O)cc(-c3ccccc3)c2O)c(Cl)c1)c1ccccn1

Reply text:
[6.13, 5.16, 6.43, 5.64, 5.63, 6.19, 6.00, 6.31]

Take each entry in turn and give its pEC50.
1. O=C(Nc1ccc(Cl)c(C(F)(F)F)c1)c1ccccn1
2. CC1(C)c2c1c(O)n(-c1ccc(NC(=O)c3ccccn3)cc1Cl)c2O

Reply text:
5.77
6.16
